Reported growth inhibition values for a set of compounds
- Measurement Protocol: NCI Yeast Anticancer Drug Screen. Data for the rad50 strain (AID 155);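 also: 0% = growth of vehicle-only cultures of the same strain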
- Assay Setup: S. cerevisiae rad50 strain growth inhibition; at 50.0 µM; active compounds read high
This is part of a sample that, as a whole, favours compounds with a hit. Of some 79,000 tested, about 15% had one in any assay.
Quick note: give the figure in %, leave out the unit.

Some entries whose results are on file:
>  <Compound>
CCCCOC(=O)c1cccc(C(=O)OCCCC)n1

>  <growth inhibition / %>
-20.9

$$$$
>  <Compound>
CC1CN=C(N(Cc2ccc(F)cc2)C(=O)Nc2ccc(Cl)cc2)S1 (stereo unspecified)

>  <growth inhibition / %>
-35.5

$$$$
>  <Compound>
BrC1C2=C(c3ccccc31)C(Br)c1ccccc12 (stereo unspecified)

>  <growth inhibition / %>
14.9

$$$$
>  <Compound>
CS(=O)(=O)OCCn1cnc2nc(NC(=O)c3ccccc3)[nH]c(=O)c21

>  <growth inhibition / %>
-13.1

$$$$
>  <Compound>
CN(C)C(=O)Nc1ccc(F)cc1

>  <growth inhibition / %>
-5.75

$$$$
>  <Compound>
O=C(O)c1ccccc1C(=O)CC(O)(C(F)(F)F)C(F)(F)F

>  <growth inhibition / %>
-20.6

$$$$
>  <Compound>
CC(C)c1cc(C(C)C)c(S(=O)(=O)N/N=C2\CC3CCC2(C)C3(C)C)c(C(C)C)c1 (stereo unspecified)

>  <growth inhibition / %>
-8.7

$$$$
>  <Compound>
O=C(NNC(=O)OCc1ccccc1)OCc1ccccc1

>  <growth inhibition / %>
23.9

$$$$

Recorded growth inhibition of Clc1ccc(-c2c3nc(c(-c4ccc(Cl)cc4)c4ccc([nH]4)c(-c4ccc(Cl)cc4)c4nc(c(-c5ccc(Cl)cc5)c5ccc2[nH]5)C=C4)C=C3)cc1 , please. -30.6

Entry O=P1(O)c2ccccc2CSCc2ccccc21 : reported growth inhibition = ? 24.4

Sample CCOC(=O)N(C)C — what was its growth inhibition? 18.9

---

- Measurement Protocol: NCI Yeast Anticancer Drug Screen. Data for the sgs1 mgt1 strain (AID 161);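 also: 0% = growth of cultures given vehicle only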
- Assay Setup: S. cerevisiae sgs1 mgt1 strain, at 50.0 µM
The panel holds about 79,000 compounds, 15% with a hit somewhere; the sample as a whole holds those more often. The source made the active and inactive calls. No stated cut-off is given here; in the data, active means growth inhibition above about 70%; inactive means the rest.
Choose one outcome from this list and give only that: yes (1) (active), no (0) (inactive)

Tell me the recorded outcome of this test for CCCCCCCCCCCCCCCCCCCCCCC . no (0)

For CCOC(=O)/C=C1/Nc2cc(F)c(F)cc2NC1=O , which call appears in the assay record? no (0)

Check the results log: what was the call for Cc1ccc(C(=O)c2ccccc2Cc2ccc3ccccc3c2)cc1 ? no (0)

State the result this test recorded for COc1ccc(-c2cc(-c3ccncc3)[nH]c2-c2nccc3ccccc23)cc1 . yes (1)

Hi team, can someone confirm the assay call for COc1cc(/C=C/C=C2\CC(C)C/C(=C\C=C\c3ccc(O)c(OC)c3)C2=O)ccc1O (stereo not given) ? no (0)

---

- Measurement Protocol: NCI Yeast Anticancer Drug Screen. Data for the mlh1 rad18 strain (AID 175)
- Assay Setup: S. cerevisiae mlh1 rad18 strain growth inhibition; at 50.0 µM; active compounds read high
This is part of a sample that, as a whole, favours compounds with a hit. Of some 79,000 tested, about 15% had one in any assay. Activity calls are given as the source filed them. Cut-off read from the data, not from the text of the source: active = growth inhibition above about 70%; inactive = the rest.
Assay Readout: growth inhibition

# count of solved cases: 3
>  <Compound>
Nc1ccc(OCCc2c(N)nc(N)nc2N)cc1

>  <growth inhibition>
9.7% (inactive)

$$$$
>  <Compound>
COc1cc(OC)c(NC(=O)Nc2ccc([N+](=O)[O-])cc2OC)cc1Cl

>  <growth inhibition>
-7.2% (inactive)

$$$$
>  <Compound>
CCOC(=O)C(CCSC)(CCSC)C(=O)OCC

>  <growth inhibition>
-13.1% (inactive)

$$$$

Which growth inhibition reading was recorded for the compound CCOC(=O)C[n+]1ccc(C(=O)OCC)cc1 ? 3.5% (inactive)

// growth inhibition lookup, key: COC1OC(COC(=O)Nc2ccccc2)C2OC12 (centres undefined) 1.25% (inactive)

Quick one: growth inhibition for C=CCc1ccc(OC(=O)Nc2ccc(S(=O)(=O)N(C)C)cc2)c(OC)c1 ? 19.2% (inactive)

Entry under review: CN1C(=O)C(=O)N(C)C(=O)C1=O . Reported growth inhibition? 9.6% (inactive)

Recorded growth inhibition of NC(=O)Nc1nc(-c2ccccc2)no1 , please. -16.1% (inactive)
